- Test system: Mycobacterium tuberculosis Erdman (autoluminescent)
- EXPERIMENT_NOTES: Einf, fitted maximum growth inhibition of three-drug combination (fraction); higher = stronger maximal inhibition
- CONDITION_PARAMETERS: in vitro model: acidic pH 5.7; time point: terminal (~4-5 doublings, model-specific)
ENDPOINT_LABEL: Einf
Number only, no unit.

Query string: Which Einf is reported with Mycobacterium tuberculosis Erdman (autoluminescent) for this entry: COc1nc2ccc(Br)cc2cc1[C@@H](c1ccccc1)[C@@](O)(CCN(C)C)c1cccc2ccccc12 [bedaquiline] + CC(C)/N=c1\cc2n(-c3ccc(Cl)cc3)c3ccccc3nc-2cc1Nc1ccc(Cl)cc1 [clofazimine] + NNC(=O)c1ccncc1 [isoniazid] ?
Result string: 0.969

Query string: Return Einf measured with Mycobacterium tuberculosis Erdman (autoluminescent) given this molecule: COc1nc2ccc(Br)cc2cc1[C@@H](c1ccccc1)[C@@](O)(CCN(C)C)c1cccc2ccccc12 [bedaquiline] + CC[C@@H](CO)NCCN[C@@H](CC)CO [ethambutol] + NNC(=O)c1ccncc1 [isoniazid]
Result string: 0.953

Query string: What is its Einf for Mycobacterium tuberculosis Erdman (autoluminescent)? Entry: COc1c(N2C[C@@H]3CCCN[C@@H]3C2)c(F)cc2c(=O)c(C(=O)O)cn(C3CC3)c12 [moxifloxacin] + NC(=O)c1cnccn1 [pyrazinamide] + CO[C@H]1/C=C/O[C@@]2(C)Oc3c(C)c(O)c4c(O)c(c(/C=N/N5CCN(C6CCCC6)CC5)c(O)c4c3C2=O)NC(=O)/C(C)=C\C=C\[C@H](C)[C@H](O)[C@@H](C)[C@@H](O)[C@@H](C)[C@H](OC(C)=O)[C@@H]1C [rifapentine]
Result string: 0.996

Query string: Which Einf is reported with Mycobacterium tuberculosis Erdman (autoluminescent) for this entry: CC[C@@H](CO)NCCN[C@@H](CC)CO [ethambutol] + COc1c(N2C[C@@H]3CCCN[C@@H]3C2)c(F)cc2c(=O)c(C(=O)O)cn(C3CC3)c12 [moxifloxacin] + O=[N+]([O-])c1cn2c(n1)OC[C@@H](OCc1ccc(OC(F)(F)F)cc1)C2 [pretomanid] ?
Result string: 0.939

Query string: API: value(readout= Einf, system= Mycobacterium tuberculosis Erdman (autoluminescent), query= COc1nc2ccc(Br)cc2cc1[C@@H](c1ccccc1)[C@@](O)(CCN(C)C)c1cccc2ccccc12 [bedaquiline] + CC(C)/N=c1\cc2n(-c3ccc(Cl)cc3)c3ccccc3nc-2cc1Nc1ccc(Cl)cc1 [clofazimine] + NC(=O)c1cnccn1 [pyrazinamide] )
Result string: 0.968

Query string: # get_value(readout= Einf, system= Mycobacterium tuberculosis Erdman (autoluminescent)) for COc1c(N2C[C@@H]3CCCN[C@@H]3C2)c(F)cc2c(=O)c(C(=O)O)cn(C3CC3)c12 [moxifloxacin] + O=[N+]([O-])c1cn2c(n1)OC[C@@H](OCc1ccc(OC(F)(F)F)cc1)C2 [pretomanid] + NC(=O)c1cnccn1 [pyrazinamide]
Result string: 0.956

Query string: Item CC(C)/N=c1\cc2n(-c3ccc(Cl)cc3)c3ccccc3nc-2cc1Nc1ccc(Cl)cc1 [clofazimine] + CC(=O)NC[C@H]1CN(c2ccc(N3CCOCC3)c(F)c2)C(=O)O1 [linezolid] + O=[N+]([O-])c1cn2c(n1)OC[C@@H](OCc1ccc(OC(F)(F)F)cc1)C2 [pretomanid] with Mycobacterium tuberculosis Erdman (autoluminescent) - Einf?
Result string: 0.964

----------
I'd be grateful if you could share measured GRinf for these entries.
- Test system: Mycobacterium tuberculosis Erdman (autoluminescent)
- EXPERIMENT_NOTES: GRinf, maximum normalised growth rate inhibition (unitless (-1 to 1)); higher = less effect (negative = killing)
- CONDITION_PARAMETERS: in vitro model: acidic pH 5.7; time point: terminal (~4-5 doublings, model-specific)
The response must contain the number and no unit.

Query string: // fetch Mycobacterium tuberculosis Erdman (autoluminescent) GRinf for CC[C@@H](CO)NCCN[C@@H](CC)CO [ethambutol] + O=[N+]([O-])c1cn2c(n1)OC[C@@H](OCc1ccc(OC(F)(F)F)cc1)C2 [pretomanid]
Result string: -0.437

Query string: Find the measured GRinf: item COc1nc2ccc(Br)cc2cc1[C@@H](c1ccccc1)[C@@](O)(CCN(C)C)c1cccc2ccccc12 [bedaquiline] + NC(=O)c1cnccn1 [pyrazinamide] , target or system Mycobacterium tuberculosis Erdman (autoluminescent).
Result string: -0.351

Query string: Observed GRinf on Mycobacterium tuberculosis Erdman (autoluminescent) for O=[N+]([O-])c1cn2c(n1)OC[C@@H](OCc1ccc(OC(F)(F)F)cc1)C2 [pretomanid] + CO[C@H]1/C=C/O[C@@]2(C)Oc3c(C)c(O)c4c(O)c(c(/C=N/N5CCN(C6CCCC6)CC5)c(O)c4c3C2=O)NC(=O)/C(C)=C\C=C\[C@H](C)[C@H](O)[C@@H](C)[C@@H](O)[C@@H](C)[C@H](OC(C)=O)[C@@H]1C , please.
Result string: -0.276

Query string: Recorded GRinf for NNC(=O)c1ccncc1 [isoniazid] + CC(=O)NC[C@H]1CN(c2ccc(N3CCOCC3)c(F)c2)C(=O)O1 [linezolid] with Mycobacterium tuberculosis Erdman (autoluminescent), please?
Result string: -0.173

Query string: Record lookup: for Mycobacterium tuberculosis Erdman (autoluminescent), what GRinf belongs to NNC(=O)c1ccncc1 [isoniazid] + COc1c(N2C[C@@H]3CCCN[C@@H]3C2)c(F)cc2c(=O)c(C(=O)O)cn(C3CC3)c12 [moxifloxacin] ?
Result string: -0.118

Query string: Lab note: need GRinf with Mycobacterium tuberculosis Erdman (autoluminescent) for entry CC(C)/N=c1\cc2n(-c3ccc(Cl)cc3)c3ccccc3nc-2cc1Nc1ccc(Cl)cc1 [clofazimine] + NC(=O)c1cnccn1 [pyrazinamide] , please look it up.
Result string: -0.397

Query string: Please state recorded GRinf (tested on Mycobacterium tuberculosis Erdman (autoluminescent)) of NC(=O)c1cnccn1 [pyrazinamide] + CO[C@H]1/C=C/O[C@@]2(C)Oc3c(C)c(O)c4c(O)c(c(/C=N/N5CCN(C)CC5)c(O)c4c3C2=O)NC(=O)/C(C)=C\C=C\[C@H](C)[C@H](O)[C@@H](C)[C@@H](O)[C@@H](C)[C@H](OC(C)=O)[C@@H]1C
Result string: -0.278
